Assay: chemical genetic growth profiling, strain panel (AID 1159580);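 further: tested at 20 µM; growth read once vehicle control cultures reached saturation at 30 °C; 1 = growth at the plate median or of vehicle wells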
Conditions: S. cerevisiae deletion strains, growth OD, locus YOR106W, strain vam3
Out of some 5,500 compounds screened, about 2,000 (36%) were called active. About 18% were inconclusive and are not listed. No stated cut-off is given here; in the data, active means normalized growth mostly below about 0.91 (no sharp cut-off); inconclusive means no clear call, values can overlap the other calls; inactive means mostly above about 0.92. The list shows a part of the results.
Outcome field: choose from true (active), false (inactive)

[ask] Called result for CC[C@]1(O)CC2CN(CCc3c([nH]c4ccccc34)[C@@](C(=O)OC)(c3cc4c(cc3OC)N(C=O)[C@H]3[C@@](O)(C(=O)OC)[C@H](OC(C)=O)[C@]5(CC)C=CCN6CC[C@]43[C@@H]65)C2)C1 (stereo partly specified)
[reply] false

[ask] Called result for Nc1nccs1
[reply] false

[ask] Called result for c1ccc2[nH]c(-c3cscn3)nc2c1
[reply] false

[ask] Called result for COc1ccc(C[C@H](N)C(=O)N[C@@H]2[C@@H](CO)OC(n3cnc4c(N(C)C)ncnc43)[C@@H]2O)cc1 (stereo partly specified)
[reply] false

[ask] Called result for C=CCN1CC[C@]23c4c5ccc(O)c4OC2C(=O)CC[C@@]3(O)[C@H]1C5 (stereo partly specified)
[reply] false

[ask] Called result for CCn1cc(C(=O)O)c(=O)c2cc3c(cc21)OCO3
[reply] false

[ask] Called result for C#C[C@]1(O)CCC2C3CCc4cc(O)ccc4C3CC[C@@]21C (stereo partly specified)
[reply] false

[ask] Called result for C[C@](N)(Cc1ccc(O)cc1)C(=O)O
[reply] false

[ask] Called result for CCOC(N)=O
[reply] false

[ask] Called result for NCc1ccc(S(N)(=O)=O)cc1
[reply] false

[ask] Called result for COc1ccc(CN(CCN(C)C)c2ncccn2)cc1
[reply] false

[ask] Called result for CN(C)CCCO[C@H]1[C@@H](C(O)CO)OC2OC(C)(C)O[C@@H]21 (stereo partly specified)
[reply] false

###

Exercise: for every item that follows, state its recorded normalized growth.
Assay: chemical genetic growth profiling, strain panel (AID 1159580)
Conditions: S. cerevisiae deletion strains, growth OD, locus YJL154C, strain vps35, stronger effect = lower value
The whole screen tested about 5,500 compounds, of which about 2,000 (36%) were called active. About 18% were inconclusive and are not listed. The list shows a part of the results.
One number for each entry.

NC(=O)c1ccc(N)nc1
0.995
CC[C@]1(O)CC2CN(CCc3c([nH]c4ccccc34)[C@@](C(=O)OC)(c3cc4c(cc3OC)N(C=O)[C@H]3[C@@](O)(C(=O)OC)[C@H](OC(C)=O)[C@]5(CC)C=CCN6CC[C@]43[C@@H]65)C2)C1 (stereo partly drawn)
0.972
CC1(C)O[C@@H]2[C@@H](CO[C@@]3(COS(N)(=O)=O)OC(C)(C)O[C@@H]23)O1
1
CC[C@@H](C(=O)[C@@H](C)[C@@H](O)[C@H](C)[C@@H]1O[C@@H]([C@@H](CC)C(=O)O)CC[C@@H]1C)[C@H]1OC2(C=C[C@@H](O)[C@]3(CC[C@@](C)([C@H]4CC[C@](O)(CC)[C@H](C)O4)O3)O2)[C@H](C)C[C@@H]1C (stereo partly drawn)
0.821
O=c1cccc2n1C[C@H]1CNCC2C1
0.997

Field: normalized growth. Fill in for each record below.
1. O=C(O)CCC(=O)c1ccc(-c2ccccc2)cc1
2. CCCN(CCC)C(=O)C(CCC(=O)O)NC(=O)c1ccccc1 (stereo not drawn)
3. CCOC(=O)C(C)(N)Cc1ccc(O)c(O)c1 (stereo not drawn)

[reply]
[0.996, 0.962, 0.986]

###

Assay: chemical genetic growth profiling, strain panel (AID 1159580)
Details: S. cerevisiae deletion strains, growth OD, locus YEL003W, strain gim4
The whole screen tested about 5,500 compounds, of which about 2,000 (36%) were called active. Inconclusive results (about 18%) are left out. Cut-off read from the data, not from the text of the source: active = normalized growth mostly below about 0.91 (no sharp cut-off); inconclusive = no clear call, values can overlap the other calls; inactive = mostly above about 0.92. This is one part of the list.
Outcome field: choose from 1 for active, -1 for inactive

[ask] Called result for O=C(NC(Cc1cc(=O)[nH]c2ccccc12)C(=O)O)c1ccc(Cl)cc1 (stereo not drawn)
[reply] -1

[ask] Called result for CCCN(CCC)CCc1cccc2c1CC(=O)N2
[reply] -1

[ask] Called result for CC[C@@]1(C2O[C@@H](C3O[C@@](O)(CC)[C@H](C)C[C@@H]3C)C[C@@H]2C)CC[C@H]([C@]2(C)CCC3(C[C@H](O)[C@@H](C)[C@@H]([C@H](C)[C@@H](OC)[C@H](C)C(=O)O)O3)O2)O1 (stereo partly drawn)
[reply] -1

[ask] Called result for OC/C=C/c1ccc(O)c(O)c1
[reply] -1

[ask] Called result for CCOC(=O)C1=C[C@]2(CC)CCCN3CCc4c(n1c1ccccc41)[C@@H]32
[reply] -1

###

Assay: chemical genetic growth profiling, strain panel (AID 1159580)
Details: S. cerevisiae deletion strains, growth OD, locus YOR001W, strain rrp6, stronger effect = lower value
About 2,000 (36%) of roughly 5,500 compounds were called active. Inconclusive results (about 18%) are left out. Some of the results follow.
Exercise: for every item that follows, state its recorded normalized growth.

Here are 5 compounds together with their reported answers.
C[C@@H]1C[C@@H]([C@H](O)CC2CC(=O)NC(=O)C2)C(=O)[C@@H](C)C1
0.0676 (active)
O=c1cccc2n1C[C@H]1CNCC2C1
0.987 (inactive)
NC(=O)c1cnccn1
0.983 (inactive)
O=C1OCCN1/N=C\c1ccc([N+](=O)[O-])o1
0.904 (inactive)
COS(C)(=O)=O
0.942 (inactive)

Field: normalized growth. Fill in for each record below.
1. CS(=O)(=O)OCCCCOS(C)(=O)=O
2. O=C1N=C(O)CN1/N=C\c1ccc(-c2ccc([N+](=O)[O-])cc2)o1

[reply]
["1.03 (inactive)", "1.02 (inactive)"]

###

Test: chemical genetic growth profiling, strain panel (AID 1159580);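 further: tested at 20 µM; growth read once vehicle control cultures reached saturation at 30 °C; 1 = growth at the plate median or of vehicle wells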
Conditions: S. cerevisiae deletion strains, growth OD, locus YDR392W, strain spt3, stronger effect = lower value
The campaign covered roughly 5,500 compounds. About 2,000 (36%) were called active. Inconclusive results (about 18%) are left out. This is one part of the list.
hey, just use criterion met if measured normalized growth is less than 0.9, otherwise criterion not met

CCC(COC(=O)c1cc(OC)c(OC)c(OC)c1)(c1ccccc1)N(C)C (configuration not stated)
criterion met

[ask] hey, is normalized growth for CN1CCc2cccc3c2C1Cc1ccc(O)c(O)c1-3 (configuration not stated) lower than 0.9 or not?
[reply] criterion met

[ask] hey, is normalized growth for COc1cc2c(cc1O)CC1c3c(cc(O)c(OC)c3-2)CCN1C (configuration not stated) lower than 0.9 or not?
[reply] criterion not met

###

Assay: chemical genetic growth profiling, strain panel (AID 1159580);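 further: tested at 20 µM; growth read once vehicle control cultures reached saturation at 30 °C; 1 = growth at the plate median or of vehicle wells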
Details: S. cerevisiae deletion strains, growth OD, locus YLR039C, strain RIC1, stronger effect = lower value
The whole screen tested about 5,500 compounds, of which about 2,000 (36%) were called active. About 18% were inconclusive and are not listed. This is one part of the list.
Exercise: for every item that follows, state its recorded normalized growth.
Numbers only.

Here are 5 compounds together with their reported answers.
CCNS(=O)(=O)c1cc(Cl)sc1Cl
0.989
O=C1O[C@@H](CO)[C@H](O)[C@@H](O)[C@@H]1O
1.03
CN(C)CCCO[C@H]1[C@@H](C(O)CO)OC2OC(C)(C)O[C@@H]21 (some centres not stated)
0.993
C#C[C@]1(O)CCC2C3CCc4cc(O)ccc4C3CC[C@@]21C (some centres not stated)
0.766
CC(=O)O[C@H]1C[C@@H](OC(C)=O)C(C)(C)C2C[C@@H](OC(C)=O)[C@]3(C)C(CC[C@@]4(C)[C@H](c5ccoc5)C(=O)[C@H]5O[C@]543)[C@]21C (some centres not stated)
1.02

Field: normalized growth. Fill in for each record below.
1. O=C(O)CC(CC(=O)O)c1ccc(C(F)(F)F)cc1
2. CC(=O)N[C@@H]1[C@@H](C(O)[C@H](O)CO)O[C@](O)(C(=O)O)C[C@@H]1O (some centres not stated)

[reply]
[1.02, 1.02]

###

Assay: chemical genetic growth profiling, strain panel (AID 1159580);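 further: tested at 20 µM; growth read once vehicle control cultures reached saturation at 30 °C; 1 = growth at the plate median or of vehicle wells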
Conditions: S. cerevisiae deletion strains, growth OD, locus YCL011C, strain gbp2
The campaign covered roughly 5,500 compounds. About 2,000 (36%) were called active. Inconclusive results (about 18%) are left out. No stated cut-off is given here; in the data, active means normalized growth mostly below about 0.91 (no sharp cut-off); inconclusive means no clear call, values can overlap the other calls; inactive means mostly above about 0.92. This is one part of the list.
Outcome field: choose from 1.0 for active, 0.0 for inactive

COc1cc(/C=C/C(=O)O)cc(OC)c1OC
0.0
COc1ccc(/C=C/C(=O)c2cc(O)ccc2O)cc1
1.0
O=C(O)c1ccc2c(c1)OCO2
0.0
COc1ccc(/C=C/C(=O)O)cc1OC
0.0
CC12CCC3C(CC=C4CC(O)CCC43C)C1CCC2=O (configuration not stated)
1.0
CCCN(CCC)CCc1cccc2c1CC(=O)N2
0.0

[ask] Called result for COc1ccc(-c2cc(C(F)F)nn2-c2ccc(S(N)(=O)=O)cc2)cc1F
[reply] 0.0

[ask] Called result for CC1=CC(=O)CC(C)(C)C1(O)/C=C/C(C)=C\C(=O)O (configuration not stated)
[reply] 0.0
